experiment: CREB reporter modulators without forskolin, primary screen, cell-based, PC12, CRE-LacZ reporter, unstimulated (AID 1145); conditions: no forskolin, luminescence, 4.5 h, called active from +8 up or from −8 down
Calls of active or inactive are those of the source.
Classes used: active, inactive

1) C=CCC(OC(C)=O)[C@@H]1[C@@H](N(Cc2ccc(-c3cccc(C(F)(F)F)c3)o2)C(=O)c2cccc3ccccc23)c2cc(OCCCO)ccc2N1C(=O)Cc1ccc(OC)cc1 (stereo partly drawn)    inactive
2) CO[C@H]1O[C@H](CO)[C@@H](OC(=O)CCc2ccccc2)[C@H](OC(=O)c2cc3ccccc3[nH]2)[C@H]1OC(=O)c1cc2ccccc2[nH]1    inactive
3) COc1ccc([Si](C)(C)[C@H]2[C@H](CC(=O)N3CCC[C@H]3CO)O[C@@]3(C(=O)N(Cc4ccc(N5CCC5=O)cc4)c4ccccc43)[C@@H]2C)cc1    inactive
4) COCCOC(=O)N1C(=O)[C@@]2(c3cc(C#CCCO)ccc31)[C@H](C(N)=O)[C@H]1C(=O)O[C@H](c3ccccc3)[C@H](c3ccccc3)N1[C@@H]2c1ccc(OCCO)cc1    inactive
5) [N-]=[N+]=NCc1ccccc1[C@@H]1OC(c2ccc(OCCCO)cc2)=N[C@]1(Cc1ccccc1)C(=O)NCCN1CCOCC1    inactive
6) Cc1ccc(N2C(=O)c3ccccc3[C@](C)(C(=O)NCc3ccccc3)[C@@H]2c2ccc(CO)cc2)nc1    inactive
7) CCCC=C(CCC)[C@@H](NS(=O)(=O)c1cccc2cccnc12)c1ccc(-c2ccccc2)cc1    inactive
8) COC(=O)[C@@]1(Cc2ccc(OC)cc2)[C@H]2c3cc(C(=O)N4CCCC4)n(Cc4ccc(OC(F)(F)F)cc4)c3C[C@H]2CN1C(=O)c1ccccc1    inactive
9) C=CCC(OC(C)=O)[C@@H]1[C@@H](N(Cc2cccc3ccccc23)C(=O)Cc2ccc(F)cc2)c2cc(OCCCO)ccc2N1C(=O)c1ccc(-c2ccccc2)cc1 (stereo partly drawn)    inactive
10) COc1ccc(CCNC(=O)[C@@]2(Cc3ccccc3I)c3ccccc3C(=O)N(Cc3ccccc3Cl)[C@H]2c2ccc(CO)cc2)cc1    inactive
11) COc1ccc([Si](C)(C)[C@@H]2[C@@H](CC(=O)N3Cc4ccccc4C[C@H]3CO)O[C@]3(C(=O)N(Cc4ccc(N5CCC5=O)cc4)c4ccccc43)[C@H]2C)cc1    inactive
12) CCOC(=O)C[C@H]1[C@H](OC(=O)c2ccc(C(=O)c3ccccc3)cc2)[C@@H](NC(=O)CC(C)C)c2cc(OCCCO)ccc2N1C(=O)Cc1ccc(OC)cc1    inactive
13) CCOC(=O)C1=CC[C@@H](c2ccccc2)N(S(=O)(=O)c2ccc(C)cc2)[C@H]1c1cccc(OC)c1    inactive
14) COCCOC(=O)N1C(=O)[C@@]2(c3cc(C#CCNC(N)=O)ccc31)[C@H](c1ccc(OCCO)cc1)N1[C@H](c3ccccc3)[C@H](c3ccccc3)OC(=O)[C@H]1[C@@H]2C(N)=O    inactive
15) O=C1C2C=CC(C(O)c3cccc(O)c3)N(Nc3ccccc3)C2C(=O)N1c1ccccc1 (stereo not drawn)    inactive
16) C=CCNC(=O)[C@@H]1[C@H]2C(=O)O[C@H](c3ccccc3)[C@H](c3ccccc3)N2[C@H](c2ccc(O)cc2)[C@@]12C(=O)N(C(=O)OCCOC)c1ccc(C#CCCO)cc12    inactive
17) CC(C)C[C@@H]1NC(=O)[C@@H]2C[C@H](C(=O)NCCCCCC[N+](C)(C)C)[C@H](c3cccc(OCCO)c3)N2C1=O    inactive
18) CCOC(=O)C[C@H]1[C@H](OC(=O)c2ccccc2-c2ccccc2)[C@@H](NC(=O)c2ccc3ccccc3n2)c2cc(OCCCO)ccc2N1C(=O)c1ccccc1    inactive
19) O=C(NCCN1CCOCC1)[C@@H]1c2ccccc2C(=O)N(Cc2ccccc2)[C@H]1c1ccc(CO)cc1    inactive
20) COC(=O)C1N=C(c2ccc(OCCCO)cc2)N(c2ccccc2)O1 (stereo not drawn)    inactive
21) COc1ccc(C(O)C2C=CC3C(=O)N(c4ccccc4)C(=O)C3N2Nc2ccccc2)cc1 (stereo not drawn)    inactive
22) C=CCC(OC(C)=O)[C@@H]1[C@@H](N(Cc2cc3ccccc3o2)C(=O)c2ccc(-c3ccccc3)cc2)c2cc(OCCCO)ccc2N1C(=O)Cc1ccc(OC)cc1 (stereo partly drawn)    inactive
23) COc1ccc(C(O)C2C=CC3C(=O)N(c4ccccc4)C(=O)C3N2Nc2ccc(C(C)C)cc2)c2ccccc12 (stereo not drawn)    inactive
24) CN1C(=O)C2C=CC(C(O)c3ccc(I)cc3)N(Nc3ccccc3)C2C1=O (stereo not drawn)    inactive
25) CC(C)(C)OC(=O)CC[C@]1(C(=O)N2CCCCC2)COC(c2ccc(OCCCO)cc2)=N1    inactive
26) O=C1OCC=C[C@H]2OC34C=CCN(c5ccc6ccccc6c5)C(=O)[C@H]3N(CCCCCO)C(=O)[C@@H]4[C@@H]12 (stereo partly drawn)    inactive
27) COc1ccc(C(O)C2C=CC3C(=O)N(c4ccccc4)C(=O)C3N2Nc2ccccc2F)cc1 (stereo not drawn)    inactive
28) C=C(CCCC)C(=O)CC[C@@H](OC(=O)c1cccnc1)c1ccc(OCCO)cc1    active
